test system: LB996-RCC; experiment: cells; assay type: functional, cell-based, Homo sapiens; details: Homo sapiens, LB996-RCC
Description: SANGER: Inhibition of human LB996-RCC cell growth in a cell viability assay.
Counter-ions that a name gives are not always drawn.
Measurement Kind: IC50 (nM)
Give the quantity in nM, number only.

# example entries with known answers
> print(dat)
                                   compound  test.value
1  Cn1cnc2c(F)c(Nc3ccc(Br)cc3Cl)c(C(=O)NOCCO)cc21 [SELUMETINIB]        3950
2   OCCCNc1cc(-c2ccnc(Nc3cccc(Cl)c3)n2)ccn1        32.5
3  N[C@@H](CSC(c1ccccc1)(c1ccccc1)c1ccccc1)C(=O)O [S-TRITYL-L-CYSTEINE]        2900

Q: So what does the record say about IC50 for COC1=CC(c2cc3ccccc3[nH]2)=N/C1=C\c1[nH]c(C)cc1C [OBATOCLAX MESYLATE] ?
Ans: 471

----------
The entries below are paired with their reported pIC50.
tested on: IA-LM; experiment: cells; assay type: functional, cell-based, Homo sapiens; details: Homo sapiens, IA-LM
Description: SANGER: Inhibition of human IA-LM cell growth in a cell viability assay.
Where a name gives a salt, the structure may show the parent alone.
Answer as the number alone; pIC50 is minus log10 of concentration in mol/L.

# example entries with known answers
Molecule	Tgt	pIC50
N[C@@H](CSC(c1ccccc1)(c1ccccc1)c1ccccc1)C(=O)O	IA-LM	5.86
COc1cccc2c1C(=O)c1c(O)c3c(c(O)c1C2=O)C[C@@](O)(C(=O)CO)C[C@@H]3O[C@H]1C[C@H](N)[C@H](O)[C@H](C)O1	IA-LM	7.20
CC(=O)O[C@H]1C(=O)[C@@]2(C)[C@H]([C@H](OC(=O)c3ccccc3)[C@]3(O)C[C@H](OC(=O)[C@H](O)[C@@H](NC(=O)c4ccccc4)c4ccccc4)C(C)=C1C3(C)C)[C@]1(OC(C)=O)CO[C@@H]1C[C@@H]2O	IA-LM	8.55

Here is another molecule to look at.
Q: // map COC1=CC(c2cc3ccccc3[nH]2)=N/C1=C\c1[nH]c(C)cc1C [OBATOCLAX MESYLATE] to recorded pIC50 (system: IA-LM);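 also: cell viability assay measuring growth inhibition of human IA-LM cells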
Ans: 7.22

----------
The entries below are paired with their reported IC50.
tested on: MFM-223; assay: cells; format: functional, cell-based, Homo sapiens; settings: Homo sapiens, MFM-223
Description: SANGER: Inhibition of human MFM-223 cell growth in a cell viability assay.

# example entries with known answers
Compound	Tgt	IC50
Oc1ccc2ccccc2c1SSc1c(O)ccc2ccccc12	MFM-223	> 32000 nM
COc1cc2ncn(-c3cc(OCc4ccccc4C(F)(F)F)c(C(N)=O)s3)c2cc1OC [GW843682X]	MFM-223	> 256 nM
CO[C@H]1C[C@@H]2CC[C@@H](C)[C@@](O)(O2)C(=O)C(=O)N2CCCC[C@H]2C(=O)O[C@H]([C@H](C)C[C@@H]2CC[C@@H](OC(=O)C(C)(CO)CO)[C@H](OC)C2)CC(=O)[C@H](C)/C=C(\C)[C@@H](O)[C@@H](OC)C(=O)[C@H](C)C[C@H](C)/C=C/C=C/C=C/1C [TEMSIROLIMUS]	MFM-223	> 200 nM
COc1cc(N2CCN(C)CC2)ccc1Nc1ncc2c(n1)N(C)c1ccccc1C(=O)N2C	MFM-223	> 8000 nM
CC(C)CCN1c2nc(Nc3cc(F)c(O)c(F)c3)ncc2N(C)C(=O)C1C (configuration not stated)	MFM-223	> 5000 nM

Q: So what does the record say about IC50 for CC1(C)CNc2cc(NC(=O)c3cccnc3NCc3ccncc3)ccc21 [MOTESANIB] ?
Ans: > 2000 nM

Q: So what does the record say about IC50 for "Cc1ccc(-c2c(C(=O)CCl)n(CCCO)c3ncnc(N)c23)cc1" ?
Ans: > 4000 nM

Q: So what does the record say about IC50 for CS(=O)(=O)c1ccc(C(=O)Nc2ccc(Cl)c(-c3ccccn3)c2)c(Cl)c1 [VISMODEGIB] ?
Ans: > 10000 nM

Q: So what does the record say about IC50 for Cn1cnc2c(F)c(Nc3ccc(Br)cc3Cl)c(C(=O)NOCCO)cc21 [SELUMETINIB] ?
Ans: > 4000 nM

Q: So what does the record say about IC50 for C#Cc1cccc(Nc2ncnc3cc(OCCOC)c(OCCOC)cc23)c1 [ERLOTINIB] ?
Ans: > 2000 nM

Q: So what does the record say about IC50 for "CC(C)c1ccccc1Cc1cc(C(=O)Nc2ccc(S(=O)(=O)c3ccccc3C(C)(C)C)cc2)c(O)c(O)c1O" ?
Ans: 847 nM

Q: So what does the record say about IC50 for CCC/C=C/C=C/C(=O)O[C@H]1/C(=C/C(=O)OC)C[C@H]2C[C@H]([C@@H](C)O)OC(=O)C[C@H](O)C[C@@H]3C[C@H](OC(C)=O)C(C)(C)[C@](O)(C[C@@H]4C/C(=C/C(=O)OC)C[C@H](/C=C/C(C)(C)[C@]1(O)O2)O4)O3 [BRYOSTATIN 1] ?
Ans: > 8 nM

----------
The entries below are paired with their reported IC50.
test system: CAL-54; test: cells; format: functional, cell-based, Homo sapiens; details: Homo sapiens, CAL-54;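 also: growth inhibition of CAL-54 cells, read out by a viability measurement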
Description: SANGER: Inhibition of human CAL-54 cell growth in a cell viability assay.

# example entries with known answers
Molecule	Measurement Kind	Test Value
N#Cc1c(O)c2c(-c3ccc(-c4ccccc4O)cc3)csc2[nH]c1=O	IC50	> 1.02 µM
CO[C@H]1C[C@@H]2CC[C@@H](C)[C@@](O)(O2)C(=O)C(=O)N2CCCC[C@H]2C(=O)O[C@H]([C@H](C)C[C@@H]2CC[C@@H](OC(=O)C(C)(CO)CO)[C@H](OC)C2)CC(=O)[C@H](C)/C=C(\C)[C@@H](O)[C@@H](OC)C(=O)[C@H](C)C[C@H](C)/C=C/C=C/C=C/1C [TEMSIROLIMUS]	IC50	0.118 µM

Here is another molecule to look at.
Q: So what does the record say about IC50 for CS(=O)(=O)c1ccc(C(=O)Nc2ccc(Cl)c(-c3ccccn3)c2)c(Cl)c1 [VISMODEGIB] ?
Ans: > 10 µM

----------
tested on: G-402; experiment: cells; type: functional, cell-based, Homo sapiens; settings: Homo sapiens, G-402
Description: SANGER: Inhibition of human G-402 cell growth in a cell viability assay.
Measurement Kind: IC50 (nM)
Give the quantity in nM, number only.

# example entries with known answers
Entry Smiles	Tgt	IC50, nM
CC(C)c1ccccc1Cc1cc(C(=O)Nc2ccc(S(=O)(=O)c3ccccc3C(C)(C)C)cc2)c(O)c(O)c1O	G-402	193
CC1(C)CNc2cc(NC(=O)c3cccnc3NCc3ccncc3)ccc21	G-402	1020

Here is another compound to look at.
Q: So what does the record say about IC50 for "COc1cccc2c1C(=O)c1c(O)c3c(c(O)c1C2=O)C[C@@](O)(C(=O)CO)C[C@@H]3O[C@H]1C[C@H](N)[C@H](O)[C@H](C)O1" ?
Ans: 99.1

----------
system: HuO-3N1; assay: cells; format: functional, cell-based, Homo sapiens; settings: Homo sapiens, HuO-3N1;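 also: cell viability readout used to measure how strongly compounds suppress proliferation of human HuO-3N1 cells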
Description: SANGER: Inhibition of human HuO-3N1 cell growth in a cell viability assay.
Measurement Kind: IC50 (µM)
Give the quantity in µM, number only.

> print(dat)
                                   compound  test.value
1  CC(C)c1ccccc1Cc1cc(C(=O)Nc2ccc(S(=O)(=O)c3ccccc3C(C)(C)C)cc2)c(O)c(O)c1O        2.03

Here is another compound to look at.
Q: So what does the record say about IC50 for CCN(CC)CCCCNc1ncc2cc(-c3cc(OC)cc(OC)c3)c(NC(=O)NC(C)(C)C)nc2n1 [PD-173074] ?
Ans: 0.547

----------
tested on: COLO-829; experiment: cells; format: functional, cell-based, Homo sapiens; conditions: colo-829
Description: SANGER: Inhibition of human COLO-829 cell growth in a cell viability assay.
Measurement Kind: IC50 (µM)
Give the quantity in µM, number only.

Q: So what does the record say about IC50 for "CISPLATIN" ?
Ans: 7.27

----------
test system: Ca9-22; assay: cells; assay type: functional, cell-based, Homo sapiens; conditions: ca9-22;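 also: growth inhibition of Ca9-22 cells, read out with a cell viability assay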
Description: SANGER: Inhibition of human Ca9-22 cell growth in a cell viability assay.
Measurement Kind: IC50 (nM)
Give the quantity in nM, number only.

Q: So what does the record say about IC50 for "BLEOMYCIN" ?
Ans: 746

----------
The entries below are paired with their reported pIC50.
tested on: NCI-H1963; test: cells; assay type: functional, cell-based, Homo sapiens; details: Homo sapiens, NCI-H1963;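 also: cell growth inhibition of the human line, determined with a cell viability assay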
Description: SANGER: Inhibition of human NCI-H1963 cell growth in a cell viability assay.
pIC50: −log10 of the molar value.

> print(dat)
                               entry.smiles  measurement.kind  test.value
1  COc1cccc2c1C(=O)c1c(O)c3c(c(O)c1C2=O)C[C@@](O)(C(=O)CO)C[C@@H]3O[C@H]1C[C@H](N)[C@H](O)[C@H](C)O1             pIC50        6.37
2  C#Cc1cccc(Nc2ncnc3cc(OCCOC)c(OCCOC)cc23)c1             pIC50      < 5.70

Here is another compound to look at.
Q: So what does the record say about pIC50 for "COc1cc(N2CCN(C)CC2)ccc1Nc1ncc2c(n1)N(C)c1ccccc1C(=O)N2C" ?
Ans: < 5.10
